Cited source for all entries: patent US10603273B2

assayOverview: Solubility of fluticasone propionate in nanostructured dispersions and single excipients
Type: physicochemical
measurementConditions: cetyl alcohol alone, oil or lipid; read-out: solubility in cetyl alcohol
Experimental: Phase I was prepared containing PEG-400 at 20%, PPG at 10%, cetyl alcohol at 10%, MCT at 1%, PEG-stearate at 7%, poloxamer 407 at 2.22%, tyloxapol at 1%, polysorbate 80 at 1%, castor oil at 38%, and fluticasone propionate at 1-2%. The composition of Phase II was sodium phosphate monobasic (0.017%), sodium phosphate dibasic (0.052%), sodium hyaluronate (0.15%), and dH2O (99.78%). Phase I was mixed with Phase II at a weight ratio of 1:9. […]
experimentalEndpoint: solubility (µg/mL)
Answer with a number only, understood to be in µg/mL.

Task item: # get_value(readout='solubility', item= CCC(=O)O[C@]1(C(=O)SCF)[C@H](C)C[C@H]2[C@@H]3C[C@H](F)C4=CC(=O)C=C[C@]4(C)[C@@]3(F)[C@@H](O)C[C@@]21C [fluticasone propionate] )
Reply: 300
